- Test system: Ryegrass, Italian (Italian ryegrass, Lolium multiflorum)
- procedure.details: Test A postemergence, Ryegrass, Italian
- Format: in vivo
- reported.conditions: Postemergence, 125 g ai/ha; visual injury approx. 10 days; 0 to 100 scale (0 no effect, 100 complete control)
property.label: Plant response rating, Ryegrass, Italian

Cc1cc(C)c(N(S(=O)(=O)C(F)(F)F)S(=O)(=O)C(F)(F)F)cc1-c1cn(C)c(=O)n(C)c1=O [Compound 42] : 70
COc1ccnn(-c2cc(NS(=O)(=O)C(F)(F)F)c(C)cc2C)c1=O [Compound 60] : 70
CCn1nccc(-c2cc(NS(=O)(=O)C(F)(F)F)c(C)cc2C)c1=O [Compound 79] : 40
O=C(c1ccc(Cl)c(NS(=O)(=O)C(F)(F)F)c1)N1CCOCC1 [Compound 15] : 30

* * *

As shown below, each of these compounds has a reported Plant response rating, Goosegrass value.
- Test system: goosegrass (Eleusine indica)
- procedure.details: Test A1 preemergence, goosegrass
- Type: in vivo
- reported.conditions: 125 g ai/ha, 0 to 100 scale, 0 no effect, 100 complete control
property.label: Plant response rating, Goosegrass

CCC1ON=C(c2cc(N(C(=O)OCC(C)C)S(=O)(=O)C(F)(F)F)c(C)cc2C)C1CC (centres unmarked) [Compound 348] : 90
CCOC(=O)N(c1cc(C(=O)N2CCSCC2)c(C)c(C)c1C)S(=O)(=O)C(F)(F)F [Compound 286] : 90
Cc1cc(C2CC2)c(C2=NOC3CCCC23)cc1N(COC(=O)C(C)(C)C)S(=O)(=O)C(F)(F)F (centres unmarked) [Compound 355] : 90
Cc1cc(Br)c(NS(=O)(=O)C(F)(F)F)cc1C1=NOC2(CCCC2)C1 [Compound 309] : 100
CCOC(=O)N(c1cc(C(=O)N2C[C@@H](C)O[C@@H](C)C2)c(C)c(C)c1C)S(=O)(=O)C(F)(F)F [Compound 332] : 90
CCOC(=O)N(c1cc(C(=O)N2CCCCC2)c(C)c(C)c1C)S(=O)(=O)C(F)(F)F [Compound 330] : 100
Cc1c(NS(=O)(=O)C(F)(F)F)cc(C(=O)N(C)C)c(C)c1C [Compound 288] : 90
Cc1cc(C)c(C2=NOC(C(C)C)C2)cc1NS(=O)(=O)C(F)(F)F (centres unmarked) [Compound 381] : 100

* * *

- Test system: Ryegrass, Italian (Italian ryegrass, Lolium multiflorum)
- procedure.details: Test A1 postemergence, Ryegrass, Italian
- Assay type: in vivo
- reported.conditions: Postemergence, 125 g ai/ha; 0 to 100 scale
As shown below, each of these compounds has a reported Plant response rating, Ryegrass, Italian value.
property.label: Plant response rating, Ryegrass, Italian

Cc1c(NS(=O)(=O)C(F)(F)F)cc(C(=O)N2CCC(F)CC2)c(C)c1C : 20
Cc1cc(C)c(N(S(=O)(=O)C(F)(F)F)S(=O)(=O)C(F)(F)F)cc1C1=NOC2COCC12 (centres unmarked) : 40
Cc1cc(C)c(N(COC(=O)C(C)(C)C)S(=O)(=O)C(F)(F)F)cc1C(=O)N1CCOCC1 : 90
CCc1cc(C)c(NS(=O)(=O)C(F)(F)F)cc1C1=NOC2CCCC12 (centres unmarked) : 40
Cc1c(C(=O)N2CCOCC2)cc(N(COC(=O)C(C)(C)C)S(=O)(=O)C(F)(F)F)c(C)c1C : 30
CCC1ON=C(c2cc(NS(=O)(=O)C(F)(F)F)c(C)cc2C)C1CC (centres unmarked) : 80
Cc1cc(C)c(N(COC(=O)C(C)(C)C)S(=O)(=O)C(F)(F)F)cc1C(=O)N1CCC(c2ccccc2)CC1 : 0
Cc1cc(C)c(C2=NOC3COCC23)cc1NS(=O)(=O)C(F)(F)F (centres unmarked) : 60
CCC1CC(c2cc(NS(=O)(=O)C(F)(F)F)c(C)cc2C)=NO1 (centres unmarked) : 40
Cc1cc(C)c(C2=NOC(OCC(C)C)C2)cc1NS(=O)(=O)C(F)(F)F (centres unmarked) : 40
Cc1cc(C)c(N(COC(=O)C(C)(C)C)S(=O)(=O)C(F)(F)F)cc1C1=NOC2COCC12 (centres unmarked) : 60
Cc1cc(C)c(N(COC(=O)C(C)(C)C)S(=O)(=O)C(F)(F)F)cc1C1=NOC2OCCC12 (centres unmarked) : 90
COCC1CC(c2cc(NS(=O)(=O)C(F)(F)F)c(C)cc2C)=NO1 (centres unmarked) : 50
Cc1cc(F)c(C2=NOC3CCCC23)cc1NS(=O)(=O)C(F)(F)F (centres unmarked) : 30

* * *

- Test system: pigweed (Amaranthus retroflexus)
- procedure.details: Test A postemergence, pigweed
- Type: in vivo
- reported.conditions: Postemergence, 125 g ai/ha; visual injury approx. 10 days; 0 to 100 scale (0 no effect, 100 complete control)
As shown below, each of these compounds has a reported Plant response rating, Pigweed value.
property.label: Plant response rating, Pigweed

COCC1(COC)CC(c2cc(NS(=O)(=O)C(F)(F)F)c(C)cc2C)=NO1 : 40
Cc1cc(Cl)c(NS(=O)(=O)C(F)(F)F)cc1C(=O)N(C)C : 70
CCn1cc(-c2cc(N(S(=O)(=O)C(F)(F)F)S(=O)(=O)C(F)(F)F)c(C)cc2C)c(=O)n(CC)c1=O : 80
Cc1cc(C)c(N(S(=O)(=O)C(F)(F)F)S(=O)(=O)C(F)(F)F)cc1C(=O)N1CCCC(F)C1 (centres unmarked) : 90
Cc1ccc(-c2ccnn(C)c2=O)cc1NS(=O)(=O)C(F)(F)F : 0
COC1CCCN(C(=O)c2cc(N(C(=O)C(C)C)S(=O)(=O)C(F)(F)F)c(C)cc2C)C1 (centres unmarked) : 40
Cc1cc(C)c(N(S(=O)(=O)C(F)(F)F)S(=O)(=O)C(F)(F)F)cc1C1=NOC2CCCC12 (centres unmarked) : 70
Cc1cc(C)c(C2=NOC3CCCCC23)cc1NS(=O)(=O)C(F)(F)F (racemic) : 60

* * *

- System: soybean (Glycine max)
- procedure.details: Test A1 postemergence, soybean
- Type: in vivo
- reported.conditions: Postemergence, 31 g ai/ha; 0 to 100 scale (0 no effect, 100 complete control); 10 days
Response key: Met means Plant response rating, Soybean >= 20; Not met means Plant response rating, Soybean < 20.

Cc1cc(C)c(N(COC(=O)C(C)(C)C)S(=O)(=O)C(F)(F)F)cc1C1=NOC2(C)CCCC12 (centres unmarked) [Compound 341] : Met
Cc1c(NS(=O)(=O)C(F)(F)F)cc(C(=O)N2CCC(Cl)CC2)c(C)c1C [Compound 356] : Met
CCCCOC1CC(c2cc(NS(=O)(=O)C(F)(F)F)c(C)cc2C)=NO1 (centres unmarked) [Compound 323] : Not met
Cc1c(NS(=O)(=O)C(F)(F)F)cc(C(=O)N(C)C)c(C)c1Cl [Compound 287] : Met
CCc1cc(C)c(NS(=O)(=O)C(F)(F)F)cc1C1=NOC2CCCC12 (centres unmarked) [Compound 305] : Not met
Cc1cc(C)c(N(COC(=O)C(C)(C)C)S(=O)(=O)C(F)(F)F)cc1C(=O)N1CCC(c2ccccc2)CC1 [Compound 364] : Not met
Cc1cc(C)c(C2=NOC3COCC23)cc1NS(=O)(=O)C(F)(F)F (centres unmarked) [Compound 297] : Met

* * *

- System: ragweed (common ragweed, Ambrosia artemisiifolia)
- procedure.details: Test A preemergence, ragweed
- Type: in vivo
- reported.conditions: Preemergence, 125 g ai/ha; visual injury, 0 to 100 scale (0 no effect, 100 complete control), approx. 10 days
As shown below, each of these molecules has a reported Plant response rating, Ragweed value.
property.label: Plant response rating, Ragweed

Cc1cc(Cl)c(NS(=O)(=O)C(F)(F)F)cc1C1=NOC(C)(C)C1 : 80
Cc1cc(F)c(C(=O)N2CCOCC2)cc1N(S(=O)(=O)C(F)(F)F)S(=O)(=O)C(F)(F)F : 30
CSC(=O)N(c1cc(C2=NOC3(CCCC3)C2)c(C)cc1C)S(=O)(=O)C(F)(F)F : 0
Cc1cc(F)c(C(=O)N2CC(C)OC(C)C2)cc1N(S(=O)(=O)C(F)(F)F)S(=O)(=O)C(F)(F)F (stereo not shown) : 40
Cc1cc(Cl)c(C(=O)N(C)C)cc1N(S(=O)(=O)C(F)(F)F)S(=O)(=O)C(F)(F)F : 60
Cc1cc(C)c(C(=O)N2CCC(S(C)(=O)=O)CC2)cc1NS(=O)(=O)C(F)(F)F : 0
CC(=O)N(c1cc(C2=NOC3(CCCC3)C2)c(C)cc1C)S(=O)(=O)C(F)(F)F : 30
Cc1cc(F)c(C(=O)N2CC(C)OC(C)C2)cc1NS(=O)(=O)C(F)(F)F (stereo not shown) : 20
Cc1cc(F)c(C(=O)N2CCOCC2)cc1NS(=O)(=O)C(F)(F)F : 30
Cc1c(NS(=O)(=O)C(F)(F)F)cc(C(=O)N2CCCCC2)c(C)c1F : 60
COC(=O)N(c1cc(N2CCC3(CCCCC3)C2=O)c(C)cc1C)S(=O)(=O)C(F)(F)F : 0
Cc1cc(Cl)c(C(=O)N2CCOCC2)cc1N(S(=O)(=O)C(F)(F)F)S(=O)(=O)C(F)(F)F : 80
Cc1cc(Cl)c(C(=O)N(C)C)cc1NS(=O)(=O)C(F)(F)F : 80
Cc1cc(C)c(N2CCC3(CCCC3)C2=O)cc1NS(=O)(=O)C(F)(F)F : 0
Cc1cc(F)c(C(=O)N(C)C)cc1NS(=O)(=O)C(F)(F)F : 0
Cc1cc(C)c(C(=O)N2CCC3(CCCCC3)CC2)cc1NS(=O)(=O)C(F)(F)F : 0
